B1: POU domain, class 2, transcription factor 1, residues 285 to 354; numbered along this chain, P14859 (parent)
chain: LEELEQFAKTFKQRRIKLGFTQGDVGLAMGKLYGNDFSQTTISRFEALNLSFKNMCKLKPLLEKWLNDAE

Variants of: B1
ASSAY_EXPLANATION: abundance fitness (aPCA) (normalised: wild type 0, dead -1); higher = more abundant; growth selection in yeast, the domain comes from the species named
MEASUREMENT_PARAMETERS: Homo sapiens
EXPERIMENTAL_ENDPOINT: abundance fitness
Give only the figure.

Entry under review: L32K . Reported abundance fitness?
0.031

Entry under review: R15H . Reported abundance fitness?
-0.725

Entry under review: S51E . Reported abundance fitness?
0.003

Entry under review: M55S . Reported abundance fitness?
-0.1

Entry under review: N35I . Reported abundance fitness?
0.03

Entry under review: G34S . Reported abundance fitness?
-0.1
